system name: pooled human IgG
property measured: Enzyme Activity Endpoint Assay (purified): scIgG (ng/µL)

protein | unit text | endpoint result
PRT-159 (protein) MANQEIRYSEVTPYHVTSVWTKGVTPPTDFIKGEDVFHAPYKAGQGWYDITKTFNGKDDLLCGAATAGNMLHWWFDQNKDQIKRYLEEHPEKQKINFNGEQMFDVKEAIDTKNHQLDSKLFEYFKEKAFPYLSTKHLGVFPDHVIDMFINGYRLSLTNHGPTPVKEGSKDPRGGIFDAVFTRGDQSKLLTSRHDFKEKNLKEISDLIKKELQEGKALGLSHTYANVRINHVINLWGADFDSNGNLKAIYVTDSDSNASIGMKKYFVGVNSAGKVAISAKEIKEDNIGAQVLGLFTLSTGQDSWNQTN | ng/µL | 0
PRT-113 (protein) MRNATEAYAKEVPHTITSVWTKGVTPPTPEQFTYYNEDVFHAPYLAHQGWYDITKTFNGKDNLLCGAATAGNMLHWWFDQNKTEIEAYLSKHPEKQKIIFNNQELFDLKAAIDTKDSQTNSQLFNYFKDKAFPNLSARQLGVMPDLVLDMFINGYYLNVFKTQSTDVNRPYQDKDKRGGIFDAVFTRGDQTKLLTARHDLKNKGLNDISDLIKQELTEGKALALSHTYANVSINHVINLWGADFNAEGNLEAIYVTDSDANASIGMKKYFVGINASGKVAISAKKIEGENIGAQVLGLFTLSSGKDIWQKLS | ng/µL | 0
PRT-127 (protein) MRNATEAYAKEVPHQITSVWTKGVTPLTPEQFRYNNEDVIHAPYLANQGWYDITKTFNGKDNLLCGAATAGNMLHWWFDQNKTEIEAYLKKHPEKQKIIFNNQELFDLKAAIDTKDSQTNSQLFNYFRDKAFPNLSARQLGVMPDLVLDMFINGYYLNVFKTQSTDVNRPYQDKDKRGGIFDAVFTRGDQTTLLTARHDLKNKGLNEISTLIKQELTEGKALALSHTYANVSISHVINLWGADFNAEGNLEAIYVTDSDSNASIGMKKYFVGVNAHGKVAISAKKIEGENIGAQVLGLFTLSSGKDIWQKLS | ng/µL | 0
PRT-133 (protein) MRNATEAYAKEVPHQITSVWTKGVTPLTPEQFRYNNEDVIHAPYLAHQGWYDITKTFDGKDNLLCGAATAGNMLHWWFDQNKTEIEAYLSKHPEKQKIIFNNQELFDLKAAIDTKDSQTNSQLFNYFRDKAFPNLSARQLGVMPDLVLDMFINGYYLNVFKTQSTDVNRPYQDKDKRGGIFDAVFTRGDQTTLLTARHDLKNKGLNDISTIIKQELTEGRALALSHTYANVSISHVINLWGADFNAEGNLEAIYVTDSDANASIGMKKYFVGINAHGHVAISAKKIEGENIGAQVLGLFTLSSGKDIWQKLS | ng/µL | 12
PRT-230 (protein) MEVVEVWPYGQNPNGKTEILSQTEDSESLQRLRDIEDFQAEKKMQNVVYTKWLDGVDVKDHDFRKIVDGNIAYYATPLLNGRGFYDINKDFNRDSDKCAAAVAANMFHYWLDINRDNVDRFLRQNPEKHGIIELPDGQLKLSDFLNTYESDNGYRDKSKLFDFISNNFNGPVWTDKLLDNYINGYAYNYKYGRTIEDPTKNTSKINFFKEVFNEKILTNNHSIRNQNEFSVLLSEALYTGKAIGLSYGPAGLRHSLGHIISVWGADLDADGNVVAIYVTDSDDKKLTIGDERVGLKRYKISTDDENRLRLTAYEETHNTGGQIRGLWTLDTGKYAWADYFDKTEQTGTDQAEQLEHHHHHH | ng/µL | 396
PRT-137 (protein) MRNATEAYAKEVPHQITSVWTKGVTPLTPEQFRYNNEDVIHAPYLAHQGWYDITKAFDGKDNLLCGAATAGNMLHWWFDQNKTEIEAYLSKHPEKQKIIFNNQELFDLKAAIDTKDSQTNSQLFNYFRDKAFPNLSARQLGVMPDLVLDMFINGYYLNVFKTQSTDVNRPYQDKDKRGGIFDAVFTRGDQTTLLTARHDLKNKGLNDISTIIKQELTEGRALALSHTYANVSISHVINLWGADFNAEGNLEAIYVTDSDANASIGMKKYFVGINAHGKVAISAKKIEGENIGAQVLGLFTLSSGKDIWQKLS | ng/µL | 0
PRT-130 (protein) MRNATEAYAKEVPHQITSVWTKGVTPLTPEQFRYNNEDVIHAPYLAHQGWYDITKAFDGKDNLLCGAATAGNMLHWWFDQNKTEIEAYLSKHPEKQKIIFNNQELFDLKAAIDTKDSQTNSQLFNYFRDKAFPNLSARQLGVMPDLVLDMFINGYYLNVFKTQSTDVNRPYQDKDKRGGIFDAVFTRGDQTTLLTARHDLKNKGLNDISDIIKQELTEGRALALSHTYANVSISHVINLWGADFNAEGNLEAIYVTDSDSNASIGMKKYFVGINAAGHVAISAKKIEGENIGAQVLGLFTLSSGKDIWQKLS | ng/µL | 0
PRT-298 (protein) MVTSVWTKGVTPPTDFIKGEDVFHAPYKAGQGWYDITKTFNGKDDLLCGAATAGNMLHWWFDQNKEYIEAYLKKHPEKQKIMFGDQELLDVRKAINTKGSQKNSELFNYFRDKAFPNLSARRLGVMPDLVLDMFINGYYLNVTKTQTTDVNRTYQEKDKRGGIFDAVFTRGDQSKLLTSRHDFKEKGLKEISDLIKQELTEGKALGLSHTYANVGINHVINLWGADFDSDGNLKAIYVTDSDSNASIGMKKYFVGVNSSGKVAISAKEIKEDNIGAQVLGLFTLSTGQDIWNQTN | ng/µL | 35
